Listing: EC50 of selected binders
target: T1, human ROR1 (full-length, on the cell surface) (human, UniProt Q01973 30-937); experiment: flow cytometry, A549 cells
T1 construct: whole, on cells; the tumour cell lines carry their own ROR1; also called Ba/F3-ROR1 cells; Jeko-1
T1 sequence (Q01973 30-937): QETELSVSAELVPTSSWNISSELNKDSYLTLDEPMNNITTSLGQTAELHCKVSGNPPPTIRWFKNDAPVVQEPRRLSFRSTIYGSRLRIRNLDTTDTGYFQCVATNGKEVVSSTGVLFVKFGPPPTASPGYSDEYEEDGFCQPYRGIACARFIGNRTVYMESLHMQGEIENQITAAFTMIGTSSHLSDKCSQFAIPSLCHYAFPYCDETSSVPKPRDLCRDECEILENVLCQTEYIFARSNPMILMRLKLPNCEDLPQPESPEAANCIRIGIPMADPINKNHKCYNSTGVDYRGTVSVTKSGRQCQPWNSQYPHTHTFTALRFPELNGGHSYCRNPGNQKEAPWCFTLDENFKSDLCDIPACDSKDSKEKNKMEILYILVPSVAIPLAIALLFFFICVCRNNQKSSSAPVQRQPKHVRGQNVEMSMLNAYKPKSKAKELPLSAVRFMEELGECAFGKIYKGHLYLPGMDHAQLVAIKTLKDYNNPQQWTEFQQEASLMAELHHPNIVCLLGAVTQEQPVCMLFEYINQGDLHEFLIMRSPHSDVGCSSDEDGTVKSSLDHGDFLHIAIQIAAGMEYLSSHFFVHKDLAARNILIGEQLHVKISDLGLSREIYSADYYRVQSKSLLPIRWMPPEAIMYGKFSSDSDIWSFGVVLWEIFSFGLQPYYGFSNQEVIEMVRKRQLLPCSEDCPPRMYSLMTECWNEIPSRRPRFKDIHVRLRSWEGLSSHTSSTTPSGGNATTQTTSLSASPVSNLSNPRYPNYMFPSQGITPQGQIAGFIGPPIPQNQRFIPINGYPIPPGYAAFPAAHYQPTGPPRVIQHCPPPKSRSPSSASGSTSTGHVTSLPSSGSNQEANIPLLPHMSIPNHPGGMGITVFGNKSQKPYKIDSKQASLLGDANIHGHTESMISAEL
Hi! Could you send only the number? It should be in nM, unit omitted.

binder	value-unit	EC50
38F8-Hu57 (antibody, human IgG1, kappa, V domains shown, humanized, human IgG1 / kappa) VH: EVQLVESGGGLVQPGGSLRLSCAASGFTFSNYAMSWVRQAPEKRLEWVASISSGGPTYYPDSVKGRFTVSRDNSKNTLYLQMNSLRAEDTAVYYCARGYRYDVNWYFDVWGAGTMVTVSS VL: DIQMTQSPSSLSASVGDRVTITCQASQDISNYLTWFQQKPGKSPKTLIHRANRLVTGVPSRFSGSGSGTDYTFTISSLQPEDIAIYYCLQYDEFPYTFGGGTKVEIKR	nM	0.23
19F6-Hu23 (antibody, human IgG1, kappa, V domains shown, humanized, human IgG1 / kappa) VH: QVQLQESGPGLVKPSETLSLTCTVSGYSITSDYAWNWIRQPPGKGLEWMGYISYSGSIRYNPSLKDRITISRDTSKNQFSLKLSSVTAADTAVYYCARGEITYYFDYWGQGTLVTVSS VL: DIQMTQSPSSLSASVGDRVTITCRASTDIDDDMNWYQQKPGKAPKLLIYEGNTLQSGVPSRFSGSGYGTDFTLTISSLQPEDFATYYCLQSNDLPLTFGQGTKLEIKR	nM	0.14
19F6-Hu15 (antibody, human IgG1, kappa, V domains shown, humanized, human IgG1 / kappa) VH: QVQLQESGPGLVKPSETLSLTCTVTGYSITSDYAWNWIRQPPGKGLEWMGYISYSGSIRYKPSLKDRITISRDTSKNQFSLKLSSVTAADTAVYYCARGEITYYFDYWGQGTLVTVSS VL: ETTLTQSPAFMSATPGDKVTISCKASTDIDDDMNWYQQKPGEPPKLIISEGNTLRPGIPPRFSSSGYGTDFTFTINNIESEDAADYYCLQSNDLPLTFGQGTKLEIKR	nM	0.09
38F8-Hu18 (antibody, human IgG1, kappa, V domains shown, humanized, human IgG1 / kappa) VH: EVQLVESGGGLVQPGGSLRLSCTASGFTFSNYAMSWVRQAPGKGLEWVASISSGGPTYYADSVKGRFTVSRDNSRNTLYLQMNSLRAEDTAVYYCARGYRYDVNWYFDVWGRGTLVTVSS VL: DIQMTQSPSSLSASVGDRVTITCQASQDINSYLTWFQQKPGKSPKTLIHRANRLVTGVPSRFSGSGSGTDYTFTISSLQPEDIAIYYCLQYDEFPYTFGGGTKVEIKR	nM	0.28

Turning now to a further record.
Item 3D8-HuC84 (antibody, human IgG1, kappa, V domains shown, humanized, human IgG1 / kappa) VH: EVQLVESGGGLVQPGGSLRLSCAASGFTFSSYAMSWVRQAPEKRLEWVSSISSGGSTYYPDSVKGRFTISRDNSKNTLYLQMNSLRAEDTAVYYCARVNYYGYGDYAMDYWGQGTLVTVSS VL: DIQMTQSPSSLSASVGDRVTITCQASQDISNYLTWFQQKPGKSPKTLIHRANRLVTGVPSRFSGSGSGTDFTFTISSLQPEDIATYYCLQYDEFPYTFGGGTKVEIKR has what recorded EC50? 0.85
